tested-on: TNFα (Homo sapiens)
Sequence (P01375 77-233 limits assumed): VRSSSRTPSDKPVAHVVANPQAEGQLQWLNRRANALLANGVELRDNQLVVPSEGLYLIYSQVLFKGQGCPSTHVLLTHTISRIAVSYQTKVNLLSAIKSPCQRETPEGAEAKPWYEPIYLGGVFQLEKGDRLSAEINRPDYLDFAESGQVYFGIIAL
protocol-description: TNF-Induced HEK-Blue Assay
Format: cell-based
condition-notes: HEK-Blue-CD40L cells, NF-kB-driven secreted alkaline phosphatase reporter; TNFα 0.5 ng/ml; 18 h; read-out: TNF induced HEK-Blue assay IC50 value
pIC50: −log10 of the molar value. Positions of bridges follow the written chain, without caps; N, C: chain ends. Non-standard residues stand in square brackets, D forms with d. Residues, ends and D or L forms follow the SMILES beside them. Bip(4'-NHAc) = CC(=O)Nc1ccc(-c2ccc(C[C@H](N)C(=O)O)cc2)cc1; Ala(morpholin-4-yl) = N[C@@H](CN1CCOCC1)C(=O)O; Bip = N[C@@H](Cc1ccc(-c2ccccc2)cc1)C(=O)O; h4Pal = N[C@@H](CCc1ccncc1)C(=O)O; Pip = O=C(O)[C@@H]1CCCCN1; Sar = CNCC(=O)O
measurement-label: pIC50

CC(=O)Nc1ccc(-c2ccc(C[C@@H]3NC(=O)[C@H](Cc4ccc(-c5ccccc5)cc4)NC(=O)[C@H](CN4CCOCC4)NC(=O)CSC[C@@H](C(=O)NCC(N)=O)NC(=O)[C@H](CC(C)C)NC(=O)[C@H](Cc4ccccc4)NC(=O)[C@H](C(C)C)NC(=O)[C@@H]4CCCN4C(=O)[C@H](C(C)C)NC(=O)[C@@H](CCCNC(=N)N)NC(=O)[C@H](CC(=O)O)NC(=O)[C@H](Cc4ccccc4)NC(=O)CN(C)C3=O)cc2)cc1 [Example 174] ({CH2CO}-[Ala(morpholin-4-yl)][Bip][Bip(4'-NHAc)][Sar]FD[dR]VPVFLCG-NH2; thioether N-13) | 6.70 to 7.30
CC(C)C[C@@H]1NC(=O)[C@H](CCc2ccncc2)NC(=O)[C@H](C(C)C)NC(=O)[C@@H]2CCCN2C(=O)[C@H](C(C)C)NC(=O)[C@@H](CCCNC(=N)N)NC(=O)[C@H](CC(=O)O)NC(=O)[C@H](Cc2ccc(O)cc2)NC(=O)CN(C)C(=O)[C@H](Cc2ccc(-c3ccccc3)cc2)NC(=O)[C@H](Cc2ccc(-c3ccccc3)cc2)NC(=O)[C@H](CN2CCOCC2)NC(=O)CSC[C@@H](C(=O)NCC(N)=O)NC1=O [Example 155] ({CH2CO}-[Ala(morpholin-4-yl)][Bip][Bip][Sar]YD[dR]VPV[h4Pal]LCG-NH2; thioether N-13) | > 7.30
CC(C)C[C@@H]1NC(=O)[C@H](CCCNC(=N)N)NC(=O)[C@H](C(C)C)NC(=O)[C@@H]2CCCCN2C(=O)[C@H](C(C)C)NC(=O)[C@H](CCCNC(=N)N)NC(=O)[C@H](CC(=O)O)NC(=O)[C@@H]2CCCN2C(=O)CN(C)C(=O)[C@H](Cc2ccc(-c3ccccc3)cc2)NC(=O)[C@H](Cc2ccc(-c3ccccc3)cc2)NC(=O)[C@H](Cc2ccccc2)NC(=O)CSC[C@@H](C(=O)NCC(N)=O)NC1=O [Example 41] ({CH2CO}-F[Bip][Bip][Sar]PDRV[Pip]VRLCG-NH2; thioether N-13) | 5.70 to 6.70

Turning now to a further molecule:
Short answer please: pIC50, TNFα (Homo sapiens), entry CC(C)C[C@@H]1NC(=O)[C@H](CCCNC(=N)N)NC(=O)[C@H](C(C)C)NC(=O)[C@@H]2CCCN2C(=O)[C@H](C(C)C)NC(=O)[C@@H](CCCNC(=N)N)NC(=O)[C@H](CC(=O)O)NC(=O)[C@@H]2CCCN2C(=O)CNC(=O)[C@H](Cc2ccc(-c3ccccc3)cc2)NC(=O)[C@H](Cc2ccc(-c3ccccc3)cc2)NC(=O)[C@H](CN2CCOCC2)NC(=O)CSC[C@@H](C(=O)NCC(N)=O)NC1=O [Example 130] ({CH2CO}-[Ala(morpholin-4-yl)][Bip][Bip]GPD[dR]VPVRLCG-NH2; thioether N-13)
5.70 to 6.70
